TESTED TARGET: DNA gyrase from E. coli (Escherichia coli, UniProt P0AES4+P0AES6)
Sequence (P0AES4 whole entry, one chain of several): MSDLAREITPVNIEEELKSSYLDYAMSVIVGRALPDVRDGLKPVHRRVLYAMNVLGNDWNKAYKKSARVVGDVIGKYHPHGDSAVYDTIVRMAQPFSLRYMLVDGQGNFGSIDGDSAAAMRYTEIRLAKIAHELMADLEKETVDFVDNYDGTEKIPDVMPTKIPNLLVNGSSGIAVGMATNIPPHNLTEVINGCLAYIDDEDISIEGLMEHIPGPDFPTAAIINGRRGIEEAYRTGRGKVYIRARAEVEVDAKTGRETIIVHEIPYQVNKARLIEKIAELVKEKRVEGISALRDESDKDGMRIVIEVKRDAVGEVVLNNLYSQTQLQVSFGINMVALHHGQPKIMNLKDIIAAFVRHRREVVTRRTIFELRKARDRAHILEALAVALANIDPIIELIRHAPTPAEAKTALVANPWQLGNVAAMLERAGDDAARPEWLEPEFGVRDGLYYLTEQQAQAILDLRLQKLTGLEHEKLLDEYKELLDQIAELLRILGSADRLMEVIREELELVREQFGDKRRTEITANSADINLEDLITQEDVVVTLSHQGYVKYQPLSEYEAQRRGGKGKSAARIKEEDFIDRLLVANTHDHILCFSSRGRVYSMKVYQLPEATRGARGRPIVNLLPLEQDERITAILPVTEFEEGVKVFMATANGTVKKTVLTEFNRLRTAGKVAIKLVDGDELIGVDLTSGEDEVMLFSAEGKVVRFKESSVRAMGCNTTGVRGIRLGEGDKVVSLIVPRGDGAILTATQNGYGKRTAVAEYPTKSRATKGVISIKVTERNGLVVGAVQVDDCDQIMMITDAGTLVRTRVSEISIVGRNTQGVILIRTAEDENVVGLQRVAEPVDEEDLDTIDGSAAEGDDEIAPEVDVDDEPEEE
ASSAY NAME: Inspiralis E. coli DNA gyrase inhibition assay
REPORTED METRIC: IC50 (nM)
Note: unit nM is implicit; provide only the numeric part.

Query: For the compound shown here, CC(=O)Nc1ccc2oc3c4ccc(CC(=O)O)cc4oc(=O)c3c2c1 [Compound 5] , give the reported IC50.
Result: 20
